From: paper PMC9854868

system: S. aureus NBRC 13276; assay type: cell-based, Staphylococcus aureus; conditions: NBRC 13276, 18 h
Square brackets hold non-standard residues; d marks the D form. Peptide text beside a SMILES is read from it. Aib = CC(C)(N)C(=O)O
Quantity measured: MIC, Gram (+), S.a. (µM)
Numbers only, in µM.

stdin: Reported MIC, Gram (+), S.a. for S. aureus NBRC 13276, given CC[C@H](C)[C@H](NC(=O)CN)C(=O)N[C@@H](CCCNC(=N)N)C(=O)N[C@@H](CCCNC(=N)N)C(=O)N[C@@H](Cc1ccccc1)C(=O)N[C@@H](CC(C)C)C(=O)N[C@@H](CCCNC(=N)N)C(=O)N[C@@H](CO)C(=O)NC(C)(C)C(=O)N[C@@H](CCCNC(=N)N)C(=O)N[C@@H](CCCNC(=N)N)C(=O)N[C@@H](Cc1ccccc1)C(=O)N[C@H](C(=O)N[C@@H](CCCNC(=N)N)C(=O)NC(C)(C)C(=O)N[C@@H](Cc1ccccc1)C(=O)N[C@@H](CCCNC(=N)N)C(N)=O)C(C)C [Peptide 4] (H-GIRRFLRS[Aib]RRFVR[Aib]FR-NH2) ?
stdout: 3.13

* * *

system: human red blood cells; settings: human RBCs in 172 mM Tris-HCl pH 7.6, 30 min at 37 °C, 100 to 0.39 μM, absorbance 535 nm; DMSO = 0%, M-Lycotoxin = 100%
Square brackets hold non-standard residues; d marks the D form. Peptide text beside a SMILES is read from it. Orn = NCCC[C@H](N)C(=O)O; Dab = NCC[C@H](N)C(=O)O; Aib = CC(C)(N)C(=O)O
Quantity measured: Hemolysis (concentration that showed hemolytic activity greater than 50%)

- Compound: "CC[C@H](C)[C@H](NC(=O)CN)C(=O)N[C@@H](CCCN)C(=O)N[C@@H](CCCN)C(=O)N[C@@H](Cc1ccccc1)C(=O)N[C@@H](CC(C)C)C(=O)N[C@@H](CCCN)C(=O)N[C@@H](CO)C(=O)NC(C)(C)C(=O)N[C@@H](CCCN)C(=O)N[C@@H](CCCN)C(=O)N[C@@H](Cc1ccccc1)C(=O)N[C@H](C(=O)N[C@@H](CCCN)C(=O)NC(C)(C)C(=O)N[C@@H](Cc1ccccc1)C(=O)N[C@@H](CCCN)C(N)=O)C(C)C [Peptide 2] (H-GI[Orn][Orn]FL[Orn]S[Aib][Orn][Orn]FV[Orn][Aib]F[Orn]-NH2)"
  Observed result: "50 µM"
- Compound: "CC[C@H](C)[C@H](NC(=O)CN)C(=O)N[C@@H](CCCNC(=N)N)C(=O)N[C@@H](CCCNC(=N)N)C(=O)N[C@@H](Cc1ccccc1)C(=O)N[C@@H](CC(C)C)C(=O)N[C@@H](CCCNC(=N)N)C(=O)N[C@@H](CO)C(=O)NC(C)(C)C(=O)N[C@@H](CCCNC(=N)N)C(=O)N[C@@H](CCCNC(=N)N)C(=O)N[C@@H](Cc1ccccc1)C(=O)N[C@H](C(=O)N[C@@H](CCCNC(=N)N)C(=O)NC(C)(C)C(=O)N[C@@H](Cc1ccccc1)C(=O)N[C@@H](CCCNC(=N)N)C(N)=O)C(C)C [Peptide 4] (H-GIRRFLRS[Aib]RRFVR[Aib]FR-NH2)"
  Observed result: "6.25 µM"

Respectfully, I request Hemolysis (concentration that showed hemolytic activity greater than 50%) for each entry included below.
1. CC[C@H](C)[C@H](NC(=O)CN)C(=O)N[C@@H](CCN)C(=O)N[C@@H](CCN)C(=O)N[C@@H](Cc1ccccc1)C(=O)N[C@@H](CC(C)C)C(=O)N[C@@H](CCN)C(=O)N[C@@H](CO)C(=O)NC(C)(C)C(=O)N[C@@H](CCN)C(=O)N[C@@H](CCN)C(=O)N[C@@H](Cc1ccccc1)C(=O)N[C@H](C(=O)N[C@@H](CCN)C(=O)NC(C)(C)C(=O)N[C@@H](Cc1ccccc1)C(=O)N[C@@H](CCN)C(N)=O)C(C)C [Peptide 3] (H-GI[Dab][Dab]FL[Dab]S[Aib][Dab][Dab]FV[Dab][Aib]F[Dab]-NH2)
2. CC[C@H](C)[C@H](NC(=O)CN)C(=O)N[C@@H](CCCCN)C(=O)N[C@@H](CCCCN)C(=O)N[C@@H](Cc1ccccc1)C(=O)N[C@@H](CC(C)C)C(=O)N[C@@H](CCCCN)C(=O)N[C@@H](CO)C(=O)NC(C)(C)C(=O)N[C@@H](CCCCN)C(=O)N[C@@H](CCCCN)C(=O)N[C@@H](Cc1ccccc1)C(=O)N[C@H](C(=O)N[C@@H](CCCCN)C(=O)NC(C)(C)C(=O)N[C@@H](Cc1ccccc1)C(=O)N[C@@H](CCCCN)C(N)=O)C(C)C [Peptide 1] (H-GIKKFLKS[Aib]KKFVK[Aib]FK-NH2)

stdout:
["25 µM", "100 µM"]

* * *

Test system: S. aureus NBRC 13276
Type: cell-based, Staphylococcus aureus
Conditions: NBRC 13276, 18 h
Method: The selected bacterial strains were obtained from the Biological Resource Center, NITE (NBRC; Tokyo, Japan). Escherichia coli DH5α cells were purchased from BioDynamics Laboratory, Inc. (Tokyo, Japan). The antimicrobial activities of the peptides against […] and three Gram-negative bacteria, S. aureus NBRC 13276, E. coli DH5α, P. aeruginosa NBRC 13275, and MDRP were measured using the standard broth microdilution method, as previously described. […]
Square brackets hold non-standard residues; d marks the D form. Peptide text beside a SMILES is read from it. Orn = NCCC[C@H](N)C(=O)O; Dab = NCC[C@H](N)C(=O)O; Aib = CC(C)(N)C(=O)O
I'd be grateful if you could share measured MIC, Gram (+), S.a. for these entries.
Answers are plain numbers, in µM.

Some compounds with known MIC, Gram (+), S.a. results, for comparison:
- Compound: "CC[C@H](C)[C@H](NC(=O)CN)C(=O)N[C@@H](CCCCN)C(=O)N[C@@H](CCCCN)C(=O)N[C@@H](Cc1ccccc1)C(=O)N[C@@H](CC(C)C)C(=O)N[C@@H](CCCCN)C(=O)N[C@@H](CO)C(=O)NC(C)(C)C(=O)N[C@@H](CCCCN)C(=O)N[C@@H](CCCCN)C(=O)N[C@@H](Cc1ccccc1)C(=O)N[C@H](C(=O)N[C@@H](CCCCN)C(=O)NC(C)(C)C(=O)N[C@@H](Cc1ccccc1)C(=O)N[C@@H](CCCCN)C(N)=O)C(C)C [Peptide 1] (H-GIKKFLKS[Aib]KKFVK[Aib]FK-NH2)"
  MIC, Gram (+), S.a. [µM]: 12.5
- Compound: "CC[C@H](C)[C@H](NC(=O)CN)C(=O)N[C@@H](CCCN)C(=O)N[C@@H](CCCN)C(=O)N[C@@H](Cc1ccccc1)C(=O)N[C@@H](CC(C)C)C(=O)N[C@@H](CCCN)C(=O)N[C@@H](CO)C(=O)NC(C)(C)C(=O)N[C@@H](CCCN)C(=O)N[C@@H](CCCN)C(=O)N[C@@H](Cc1ccccc1)C(=O)N[C@H](C(=O)N[C@@H](CCCN)C(=O)NC(C)(C)C(=O)N[C@@H](Cc1ccccc1)C(=O)N[C@@H](CCCN)C(N)=O)C(C)C [Peptide 2] (H-GI[Orn][Orn]FL[Orn]S[Aib][Orn][Orn]FV[Orn][Aib]F[Orn]-NH2)"
  MIC, Gram (+), S.a. [µM]: 12.5

Read the next record carefully.
stdin: Data request, read-out MIC, Gram (+), S.a., for CC[C@H](C)[C@H](NC(=O)CN)C(=O)N[C@@H](CCN)C(=O)N[C@@H](CCN)C(=O)N[C@@H](Cc1ccccc1)C(=O)N[C@@H](CC(C)C)C(=O)N[C@@H](CCN)C(=O)N[C@@H](CO)C(=O)NC(C)(C)C(=O)N[C@@H](CCN)C(=O)N[C@@H](CCN)C(=O)N[C@@H](Cc1ccccc1)C(=O)N[C@H](C(=O)N[C@@H](CCN)C(=O)NC(C)(C)C(=O)N[C@@H](Cc1ccccc1)C(=O)N[C@@H](CCN)C(N)=O)C(C)C [Peptide 3] (H-GI[Dab][Dab]FL[Dab]S[Aib][Dab][Dab]FV[Dab][Aib]F[Dab]-NH2)
stdout: 12.5

* * *

assay: Digestion assay with proteinase K; assay type: in vitro ADME; details: proteinase K (isolated protease); proteinase K 0.002% (v/v), peptide 1 mM, 37 °C, 24 h, read-out HPLC, two independent experiments; read-out: remaining peptide after treatment with proteinase K
Square brackets hold non-standard residues; d marks the D form. Peptide text beside a SMILES is read from it. Orn = NCCC[C@H](N)C(=O)O; Aib = CC(C)(N)C(=O)O
Quantity measured: remaining at 24 h, 1 mM

- Compound: "CC[C@H](C)[C@H](NC(=O)CN)C(=O)N[C@@H](CCCCN)C(=O)N[C@@H](CCCCN)C(=O)N[C@@H](Cc1ccccc1)C(=O)N[C@@H](CC(C)C)C(=O)N[C@@H](CCCCN)C(=O)N[C@@H](CO)C(=O)NC(C)(C)C(=O)N[C@@H](CCCCN)C(=O)N[C@@H](CCCCN)C(=O)N[C@@H](Cc1ccccc1)C(=O)N[C@H](C(=O)N[C@@H](CCCCN)C(=O)NC(C)(C)C(=O)N[C@@H](Cc1ccccc1)C(=O)N[C@@H](CCCCN)C(N)=O)C(C)C [Peptide 1] (H-GIKKFLKS[Aib]KKFVK[Aib]FK-NH2)"
  Quantity measured: "remaining at 24 h, 1 mM"
  Observed result: "~20%"

stdin: Could you share which remaining at 24 h, 1 mM value was measured for CC[C@H](C)[C@H](NC(=O)CN)C(=O)N[C@@H](CCCN)C(=O)N[C@@H](CCCN)C(=O)N[C@@H](Cc1ccccc1)C(=O)N[C@@H](CC(C)C)C(=O)N[C@@H](CCCN)C(=O)N[C@@H](CO)C(=O)NC(C)(C)C(=O)N[C@@H](CCCN)C(=O)N[C@@H](CCCN)C(=O)N[C@@H](Cc1ccccc1)C(=O)N[C@H](C(=O)N[C@@H](CCCN)C(=O)NC(C)(C)C(=O)N[C@@H](Cc1ccccc1)C(=O)N[C@@H](CCCN)C(N)=O)C(C)C [Peptide 2] (H-GI[Orn][Orn]FL[Orn]S[Aib][Orn][Orn]FV[Orn][Aib]F[Orn]-NH2) ?
stdout: 41%
